# TEST NAME: Pharmacokinetic evaluation in ICR male mice
# Format: in vivo
# CONDITION PARAMETERS: mouse, plasma, IV 2 mg/kg
TEST READOUT: Cmax

STRUCTURE NOTATION: CNC(=O)c1cc2c(c(F)c1-c1c(Cl)c(F)cc3c1C[C@@](CN[C@H]1CC[C@H](C(=O)N4CCC(CC5CCN(C(=O)COc6ccc(N7CCC(=O)NC7=O)c(C)c6)CC5)CC4)CC1)(c1ccccc1)O3)[C@@H](O)[C@@H](C)C2
VALUE REPORTED: 4430 ng/mL

====

# ASSAY SYSTEM: CRBN (Homo sapiens)
# Construct: expressed in transfected cells; host or cells: HEK293T
# Sequence (Q96SW2 whole entry): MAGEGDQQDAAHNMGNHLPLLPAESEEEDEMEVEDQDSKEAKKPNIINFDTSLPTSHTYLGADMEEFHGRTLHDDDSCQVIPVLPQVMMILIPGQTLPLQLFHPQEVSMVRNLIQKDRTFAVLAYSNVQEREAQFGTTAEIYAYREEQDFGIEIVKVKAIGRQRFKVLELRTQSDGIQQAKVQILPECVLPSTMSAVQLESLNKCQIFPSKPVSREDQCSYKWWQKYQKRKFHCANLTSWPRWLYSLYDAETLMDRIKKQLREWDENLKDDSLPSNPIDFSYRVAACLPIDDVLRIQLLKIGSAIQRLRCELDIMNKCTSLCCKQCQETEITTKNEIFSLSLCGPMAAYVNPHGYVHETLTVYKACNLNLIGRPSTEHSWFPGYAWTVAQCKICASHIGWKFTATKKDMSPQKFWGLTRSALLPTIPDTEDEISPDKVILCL
# TEST NAME: Intracellular CRBN binding in NanoLuc-CRBN-overexpressing HEK293T cells
# Type: cell-based
# CONDITION PARAMETERS: read-out: Cellular CRBN Binding IC50 (nM ± SD)

MOLECULE: CNC(=O)c1cc2c(c(F)c1-c1c(Cl)c(F)cc3c1C[C@@](CNC(=O)CCCCC(=O)Nc1ccc4c(c1)C(=O)N(C1CCC(=O)NC1=O)C4=O)(c1ccccc1)O3)[C@@H](O)[C@@H](C)C2 (stereo partly shown) [KG-FP-008]
IC50 / nM: 426

MOLECULE: CNC(=O)c1cc2c(c(F)c1-c1c(Cl)c(F)cc3c1C[C@@](CN[C@H]1CC[C@H](C(=O)N4CCC(CC5CCN(C(=O)COc6ccc(N7CCC(=O)NC7=O)c(C)c6)CC5)CC4)CC1)(c1ccccc1)O3)[C@@H](O)[C@@H](C)C2 [KG-FP-003]
IC50 / nM: 962

MOLECULE: CNC(=O)c1cc2c(c(F)c1-c1c(Cl)c(F)cc3c1C[C@@](CN[C@H]1CC[C@H](C(=O)N4CCC(CC5CCN(C(=O)COc6ccc7c(c6)C(=O)N(C6CCC(=O)NC6=O)C7=O)CC5)CC4)CC1)(c1ccccc1)O3)[C@@H](O)[C@@H](C)C2 (stereo partly shown) [KG-FP-009]
IC50 / nM: 1380

MOLECULE: CNC(=O)c1cc2c(c(F)c1-c1c(Cl)c(F)cc3c1C[C@@](CN[C@H]1CC[C@H](C(=O)NCCCCC(=O)Nc4ccc(C)c(N5CCC(=O)NC5=O)c4)CC1)(c1ccccc1)O3)[C@@H](O)[C@@H](C)C2 [KG-FP-010]
IC50 / nM: 1700
